Reference source for all entries: paper PMC10819729

assay: in vivo; design: species or system mice; conditions: male, C57BL/6J, mouse, iv, 30 mg/kg, T1/2 (plasma)
METRIC: half-life (min)
Numbers only, in min.

Return the recorded half-life value; entry: CCN(CC)C(=O)C1(c2ccccc2)CC1CN (racemic)
59

###

assay: in vivo; parameters: species or system mice; settings: male, C57BL/6J, mouse, ip, 30 mg/kg
METRIC: Tmax

Supply measured Tmax of CCN(CC)C(=O)C1(c2ccccc2)CC1CN (racemic) in your reply.
5 min

###

test: in vivo; parameters: species or system mice; conditions: male, C57BL/6J, mouse, iv, 30 mg/kg, Tmax (brain)
METRIC: Tmax

Provide only the value of recorded Tmax for CCN(CC)C(=O)C1(c2ccccc2)CC1CN (racemic) [milnacipran]
~1 h
